Give measured IC50 for each item. Keep answers brief.
- target.system: DR1Dw1 (Homo sapiens, UniProt P01903+P01911, A100R/D57E/F55L/F60I/F76Y/I96L/L162R/M171V/P40L/Q125E/R42F/V115G/Y59C)
- Construct: these are Drosophila transmembrane DR; made in house
- assay.protocol: Inhibition of biotinylated RMBP 90-102 peptide binding to MHC class II DR1 (europium-streptavidin capture assay)
- condition: 20 min incubation at 37° C., 0.3 nM biotinylated RMBP 90-102, 1.25 nM DR1Dw1, pH 6.5, read-out: IC50 /nM @ 20 min
Express your answer as a number followed by its unit.

substance	IC50
N-(3-CYCLOHEXYLPROPYL)-(L)(ε-NICOTINOYL)Lys Nva.psi.[E,CH=CH]Nle-NH2 TFA SALT [Example 7]	409 nM

Dear colleague, could you send me IC50 for each of the items below? Thanks.
1. α-(3-CYCLOHEXYLPROPYL)-(L)(3-PYRIDYL)Ala Nva.psi.[(E)CH=CH]Leu-NH2 TFA SALT [Example 9]
2. α-(3-CYCLOHEXYLPROPYL)-(L)(ε-NICOTINOYL)Lys Nva.psi.[(E)CH=CH]Leu-NH2 TFA SALT [Example 8]

Reply:
2520 nM
1050 nM

The reported measurements were obtained from patent US5840835A.
